Data origin, for the record: the supplement of paper PMC9694430

system: LOC_OS02G07810-cb001; experiment: thermal shift delta Tm vs DMSO control; higher = stronger stabilization (binding); settings: 12.5 µM; protein concentration 2 µM;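 also: purified Escherichia coli-expressed rice kinase domain construct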
RECORDED_ENDPOINT: thermal shift delta Tm

INSERT INTO results (molecule, recorded_endpoint, reading) VALUES
  ('Cc1cc(Nc2ncnc3ccc(-c4ccc(CNCCS(C)(=O)=O)o4)cc23)ccc1Oc1ccn2ncnc2c1', 'thermal shift delta Tm', '0.98 °C'),
  ('Cc1cc(N2CCOCC2)cc2[nH]c(-c3c(NC[C@@H](O)c4cccc(Cl)c4)cc[nH]c3=O)nc12', 'thermal shift delta Tm', '0.46 °C'),
  ('FC(F)(F)c1ccc(CNc2ccc(Cc3c[nH]c4ncc(Cl)cc34)cn2)cn1', 'thermal shift delta Tm', '1.03 °C'),
  ('CCC(=O)Nc1cccc(Oc2nc(Nc3ccc(N4CCN(C)CC4)cc3OC)ncc2Cl)c1', 'thermal shift delta Tm', '0.45 °C'),
  ('Cc1cccc(Nc2nc(NC3CCCCC3N)ncc2C(N)=O)c1 (stereo not drawn)', 'thermal shift delta Tm', '-0.08 °C'),
  ('CN1CCN(c2ccc3nc(-c4c(N)c5c(F)cccc5[nH]c4=O)[nH]c3c2)CC1', 'thermal shift delta Tm', '1.75 °C'),
  ('CNC(=O)c1ccccc1Sc1ccc2c(/C=C/c3ccccn3)n[nH]c2c1', 'thermal shift delta Tm', '0.49 °C'),
  ('COc1ccc(/C=C/C(=O)C2(C(=O)/C=C/c3ccc(OC)c(OC)c3)CCCCC2)cc1OC', 'thermal shift delta Tm', '0.4 °C');
